CONDITION_DETAILS: in isopropanol, 283.15 K
READOUT_LABEL: solubility (mole fraction)

{"COMPOUND_STRUCTURE_STRING": "O=[N+]([O-])c1ccc(Oc2ccc([N+](=O)[O-])cc2)cc1", "OBSERVED": 0.000139}

----------
CONDITION_DETAILS: in 1-methoxy-2-propanol, 313.15 K
READOUT_LABEL: solubility (mole fraction)

{"COMPOUND_STRUCTURE_STRING": "O=[N+]([O-])c1ccc(Oc2ccc([N+](=O)[O-])cc2)cc1", "OBSERVED": 0.0137}

----------
CONDITION_DETAILS: in acetonitrile, 298.15 K
READOUT_LABEL: solubility (mole fraction)

{"COMPOUND_STRUCTURE_STRING": "O=[N+]([O-])c1ccc(Oc2ccc([N+](=O)[O-])cc2)cc1", "OBSERVED": 0.00926}

----------
CONDITION_DETAILS: in 1-methoxy-2-propanol, 293.15 K
READOUT_LABEL: solubility (mole fraction)

{"COMPOUND_STRUCTURE_STRING": "O=[N+]([O-])c1ccc(Oc2ccc([N+](=O)[O-])cc2)cc1", "READOUT_LABEL": "solubility (mole fraction)", "OBSERVED": 0.0071}

----------
CONDITION_DETAILS: in acetone, 283.15 K

{"COMPOUND_STRUCTURE_STRING": "O=[N+]([O-])c1ccc(Oc2ccc([N+](=O)[O-])cc2)cc1", "solubility (mole fraction)": 0.0155}

----------
CONDITION_DETAILS: in DMF, 293.15 K
READOUT_LABEL: solubility (mole fraction)

{"COMPOUND_STRUCTURE_STRING": "O=[N+]([O-])c1ccc(Oc2ccc([N+](=O)[O-])cc2)cc1", "READOUT_LABEL": "solubility (mole fraction)", "OBSERVED": 0.0663}

----------
CONDITION_DETAILS: in acetone, 323.15 K

{"COMPOUND_STRUCTURE_STRING": "O=[N+]([O-])c1ccc(Oc2ccc([N+](=O)[O-])cc2)cc1", "solubility (mole fraction)": 0.0571}

----------
CONDITION_DETAILS: in methanol, 318.15 K
READOUT_LABEL: solubility (mole fraction)

{"COMPOUND_STRUCTURE_STRING": "O=[N+]([O-])c1ccc(Oc2ccc([N+](=O)[O-])cc2)cc1", "OBSERVED": 0.00115}

----------
CONDITION_DETAILS: in 1-methoxy-2-propanol, 303.15 K

{"COMPOUND_STRUCTURE_STRING": "O=[N+]([O-])c1ccc(Oc2ccc([N+](=O)[O-])cc2)cc1", "solubility (mole fraction)": 0.00979}

----------
CONDITION_DETAILS: in acetonitrile, 303.15 K

{"COMPOUND_STRUCTURE_STRING": "O=[N+]([O-])c1ccc(Oc2ccc([N+](=O)[O-])cc2)cc1", "solubility (mole fraction)": 0.0104}

----------
CONDITION_DETAILS: in 1-methoxy-2-propanol, 283.15 K
READOUT_LABEL: solubility (mole fraction)

{"COMPOUND_STRUCTURE_STRING": "O=[N+]([O-])c1ccc(Oc2ccc([N+](=O)[O-])cc2)cc1", "READOUT_LABEL": "solubility (mole fraction)", "OBSERVED": 0.00539}
